# System: human RNase H2
# procedure summary: Screen of antisense compounds (gapped oligonucleotides, siRNA) in cells against human RNase H2
# Type: cell-based
# Parameters: concentration or dose not given beside the values
# conditions used: percent inhibition of RNase H enzyme levels; target H2
Strand notation (5' to 3'): a small letter for the sugar, then the base; units joined by * are phosphorothioate-linked, units joined directly phosphodiester-linked; [ ] holds rarer units or linkages, { } end groups; capitals alone tell only the bases. e = 2'-O-(2-methoxyethyl) (MOE); [5mC] = 5-methylcytosine; d = 2'-deoxy (DNA)
readout label: % Inhib (%)
Just the number please, in %, no unit attached.

// solved cases for % Inhib follow
| sequence data | measure unit | % Inhib |
| --- | --- | --- |
| GGCAAUUCGUGGAGAAACUGC [Si 21955] | % | 19.2 |
| GCACACTCCCACCTTGCTTC (chemistry not fully specified) [ISIS 21961, 2′-O-methoxyethyl gapmer, 8-nucleotide deoxy gap, phosphorothioate backbone, targeted to human RNase H2] | % | 6.1 |
| CCTCTTTCTCCAGGATGGTC (antisense e[5mC]*e[5mC]*eT*e[5mC]*eT*eT*dT*d[5mC]*dT*d[5mC]*d[5mC]*dA*dG*dG*eA*eT*eG*eG*eT*e[5mC]) [ISIS 21958, 2′-O-methoxyethyl gapmer, 8-nucleotide deoxy gap, phosphorothioate backbone, targeted to human RNase H2] | % | 38.0 |
| CCAGUUUGUCCGGUUCAGCUG [Si 21957] | % | 42.4 |
| TTTTGTCTTGGGATCATTGG (eT*eT*eT*eT*eG*eT*d[5mC]*dT*dT*dG*dG*dG*dA*dT*e[5mC]*eA*eT*eT*eG*eG) [ISIS 21956] | % | 63.1 |
| CAAAAGGAAGTAGCTGGACC (antisense e[5mC]*eA*eA*eA*eA*eG*dG*dA*dA*dG*dT*dA*dG*d[5mC]*eT*eG*eG*eA*e[5mC]*e[5mC]) [ISIS 21962, 2′-O-methoxyethyl gapmer, 8-nucleotide deoxy gap, phosphorothioate backbone, targeted to human RNase H2] | % | 36.0 |

Now for another entry.
For the sequence CCAAUGAUCCCAAGACAAAAG [Si 21956] , give its reported % Inhib.
87.6

----------
# Tested on: human RNase H2
# procedure summary: Screen of antisense compounds (gapped oligonucleotides, siRNA) in cells against human RNase H2
# Format: cell-based
# Design: concentration or dose not given beside the values
# conditions used: percent inhibition of RNase H enzyme levels; target H2
Strand notation (5' to 3'): a small letter for the sugar, then the base; units joined by * are phosphorothioate-linked, units joined directly phosphodiester-linked; [ ] holds rarer units or linkages, { } end groups; capitals alone tell only the bases. e = 2'-O-(2-methoxyethyl) (MOE); [5mC] = 5-methylcytosine; d = 2'-deoxy (DNA)
readout label: % Inhib (%)
Give the value in % but do not write % after it.

| sequence data | target | result value |
| --- | --- | --- |
| CCTACGTGTGGTTCTCCTTA (antisense e[5mC]*e[5mC]*eT*eA*e[5mC]*eG*dT*dG*dT*dG*dG*dT*dT*d[5mC]*eT*e[5mC]*e[5mC]*eT*eT*eA) [ISIS 21960, 2′-O-methoxyethyl gapmer, 8-nucleotide deoxy gap, phosphorothioate backbone, targeted to human RNase H2] | human RNase H2 | 91.7 |

State its % Inhib for this sequence: CCUGGAACGCGGCCUGGAGUC [Si 21959]
53.8

----------
# Test system: human RNase H2
# procedure summary: Antisense inhibition of human RNase H2 expression, Northern blot
# Assay type: cell-based
# Design: concentration or dose not given beside the values
# conditions used: RNase H2 expression, Northern blot
Strand notation (5' to 3'): a small letter for the sugar, then the base; units joined by * are phosphorothioate-linked, units joined directly phosphodiester-linked; [ ] holds rarer units or linkages, { } end groups; capitals alone tell only the bases. e = 2'-O-(2-methoxyethyl) (MOE); [5mC] = 5-methylcytosine; d = 2'-deoxy (DNA)
readout label: % of control (%)
// note: answer is a bare numeric in %

Solved entries:
| sequence data | target | % of control (%) |
| --- | --- | --- |
| CGCCTCAGCCGCCACCACCA (all C 5-methyl, all phosphorothioate, sugars by position not given here; further chemistry not fully specified) [ISIS 21946, 2′-O-methoxyethyl gapmer, 8-nucleotide deoxy gap, phosphorothioate backbone, targeted to human RNase H2] | human RNase H2 | 50 |
| TTTTGTCTTGGGATCATTGG (eT*eT*eT*eT*eG*eT*d[5mC]*dT*dT*dG*dG*dG*dA*dT*e[5mC]*eA*eT*eT*eG*eG) [ISIS 21956] | human RNase H2 | 37 |

Output reported % of control of the sequence CAAAAGGAAGTAGCTGGACC (antisense e[5mC]*eA*eA*eA*eA*eG*dG*dA*dA*dG*dT*dA*dG*d[5mC]*eT*eG*eG*eA*e[5mC]*e[5mC]) [ISIS 21962, 2′-O-methoxyethyl gapmer, 8-nucleotide deoxy gap, phosphorothioate backbone, targeted to human RNase H2] on human RNase H2.
63

State, for human RNase H2, measured % of control of the sequence listed here: AGCTGAACCGGACAAACTGG (antisense eA*eG*e[5mC]*eT*eG*eA*dA*d[5mC]*d[5mC]*dG*dG*dA*d[5mC]*dA*eA*eA*e[5mC]*eT*eG*eG) [ISIS 21957, 2′-O-methoxyethyl gapmer, 8-nucleotide deoxy gap, phosphorothioate backbone, targeted to human RNase H2]
32

# lookup: human RNase H2 % of control, key = GGTAGAGGGCATCTGCTTTG (eG*eG*eT*eA*eG*eA*dG*dG*dG*d[5mC]*dA*dT*d[5mC]*dT*eG*e[5mC]*eT*eT*eT*eG) [ISIS 21953]
41

Jot down % of control (human RNase H2) of CCCAGCCGACAAAGTCCGTG (all C 5-methyl, all phosphorothioate, sugars by position not given here; further chemistry not fully specified) [ISIS 21950, 2′-O-methoxyethyl gapmer, 8-nucleotide deoxy gap, phosphorothioate backbone, targeted to human RNase H2] .
32

----------
In this section, each of the sequences is paired with its reported % Inhib.
# Test system: human RNase H2
# procedure summary: Screen of antisense compounds (gapped oligonucleotides, siRNA) in cells against human RNase H2
# Format: cell-based
# Design: concentration or dose not given beside the values
# conditions used: percent inhibition of RNase H enzyme levels; target H2
Strand notation (5' to 3'): a small letter for the sugar, then the base; units joined by * are phosphorothioate-linked, units joined directly phosphodiester-linked; [ ] holds rarer units or linkages, { } end groups; capitals alone tell only the bases. e = 2'-O-(2-methoxyethyl) (MOE); [5mC] = 5-methylcytosine; d = 2'-deoxy (DNA)

Return value of % Inhib for input CAGTTTCTCCACGAATTGCC (antisense e[5mC]*eA*eG*eT*eT*eT*d[5mC]*dT*d[5mC]*d[5mC]*dA*d[5mC]*dG*dA*eA*eT*eT*eG*e[5mC]*e[5mC]) [ISIS 21955, 2′-O-methoxyethyl gapmer, 8-nucleotide deoxy gap, phosphorothioate backbone, targeted to human RNase H2] , no commentary.
33.3%

Using the record for GACCAUCCUGGAGAAAGAGGC [Si 21958] , state its measured % Inhib.
45.8%

Give reported % Inhib value for GAAGCAAGGUGGGAGUGUGCU [Si 21961]
15.2%

Let me know recorded % Inhib for GGUCCAGCUACUUCCUUUUGG [Si 21962] , thanks.
0%

----------
# System: human RNase H2
# procedure summary: Antisense inhibition of human RNase H2 expression, Northern blot
# Assay type: cell-based
# Parameters: concentration or dose not given beside the values
# conditions used: RNase H2 expression, Northern blot
Strand notation (5' to 3'): a small letter for the sugar, then the base; units joined by * are phosphorothioate-linked, units joined directly phosphodiester-linked; [ ] holds rarer units or linkages, { } end groups; capitals alone tell only the bases. e = 2'-O-(2-methoxyethyl) (MOE); [5mC] = 5-methylcytosine; d = 2'-deoxy (DNA)
# maps each entry to its % of control
The reply should be a number in %, with the unit left off.

Kindly indicate its recorded % of control. Item: CGGTGTCCACGAATACCTGG (all C 5-methyl, all phosphorothioate, sugars by position not given here; further chemistry not fully specified) [ISIS 21951, 2′-O-methoxyethyl gapmer, 8-nucleotide deoxy gap, phosphorothioate backbone, targeted to human RNase H2]
26

Fill in reported % of control for this entry: CCCGCTCGCTCTCCAATAGG (all C 5-methyl, all phosphorothioate, sugars by position not given here; further chemistry not fully specified) [ISIS 21949, 2′-O-methoxyethyl gapmer, 8-nucleotide deoxy gap, phosphorothioate backbone, targeted to human RNase H2]
18

Please list % of control recorded for the sequence CCTCTTTCTCCAGGATGGTC (antisense e[5mC]*e[5mC]*eT*e[5mC]*eT*eT*dT*d[5mC]*dT*d[5mC]*d[5mC]*dA*dG*dG*eA*eT*eG*eG*eT*e[5mC]) [ISIS 21958, 2′-O-methoxyethyl gapmer, 8-nucleotide deoxy gap, phosphorothioate backbone, targeted to human RNase H2]
62

Indicate its recorded % of control; the sequence in question is CAGTTTCTCCACGAATTGCC (antisense e[5mC]*eA*eG*eT*eT*eT*d[5mC]*dT*d[5mC]*d[5mC]*dA*d[5mC]*dG*dA*eA*eT*eT*eG*e[5mC]*e[5mC]) [ISIS 21955, 2′-O-methoxyethyl gapmer, 8-nucleotide deoxy gap, phosphorothioate backbone, targeted to human RNase H2]
67
